- protocol_text: Ratio of CC50/EC50 was calculated
- Format: functional
result_type: Selectivity index
One number for each entry.

1. CC(NP(=O)(OCC1C=CC(n2cnc3c(N)ncnc32)O1)Oc1ccccc1)C(=O)OCc1ccccc1 (centres undefined) : 237
2. Nc1ncnc2c1ncn2[C@H]1C=C[C@@H](CO)O1 : 4.5

// moving on: another record for Selectivity index
Qu. Consider the compound COC(=O)C(C)NP(=O)(OCC1C=CC(n2cnc3c(N)ncnc32)O1)Oc1ccccc1 (centres undefined) and give its recorded Selectivity index.
Ans. 633

* * *

Hi there, I'd appreciate the recorded pEC50 for every entry that follows.
- Tested on: CCRF-CEM
- protocol_text: Compound was evaluated for antiviral activity against HIV-1 (IIIB) infected CEM cells.
- Format: functional, cell-based
- experimental_setup: Homo sapiens
Answers are plain numbers, as −log10 of the molar value.

Some entries whose results are on file:
1) Nc1ncnc2c1ncn2[C@H]1C=C[C@@H](CO)O1 : 4.70
2) COC(=O)C(C)NP(=O)(OCC1C=CC(n2cnc3c(N)ncnc32)O1)Oc1ccccc1 (stereo not drawn) : 8.22

// moving on: another record for pEC50
Qu. Consider the compound CC(NP(=O)(OCC1C=CC(n2cnc3c(N)ncnc32)O1)Oc1ccccc1)C(=O)OCc1ccccc1 (stereo not drawn) and give its recorded pEC50.
Ans. 8.10

* * *

Hi there, I'd appreciate the recorded MIC for every entry that follows.
- protocol_text: Compound was evaluated minimum inhibitory concentration against moloney sarcoma virus (MSV) infected C3H cell cultures.
- Type: functional
- experimental_setup: Mus musculus
Give bare numbers, in µM.

Some entries whose results are on file:
1) CC(NP(=O)(OCC1C=CC(n2cnc3c(N)ncnc32)O1)Oc1ccccc1)C(=O)OCc1ccccc1 (centres undefined) : 0.2
2) COC(=O)C(C)NP(=O)(OCC1C=CC(n2cnc3c(N)ncnc32)O1)Oc1ccccc1 (centres undefined) : 9.4
3) Cc1cn([C@H]2C[C@H](N=[N+]=[N-])[C@@H](CO)O2)c(=O)[nH]c1=O : 0.02

// moving on: another record for MIC
Qu. Consider the compound Nc1ncnc2c1ncn2[C@H]1C=C[C@@H](CO)O1 and give its recorded MIC.
Ans. 31

Each recorded value in this set is attributed to ChEMBL document CHEMBL1129180.
